Value source: PubChem BioAssay AID624168

Test: compounds raising alpha-dystroglycan glycosylation – uHTS, Pro5-aDG cells, AlphaScreen, primary screen (AID 624168);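 note: Pro5 are CHO cells carrying HIG-tagged alpha-DG that lacks glycosylation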
Settings: alpha-DG glycosylation AlphaScreen (IIH6), at 10 µM, stronger effect = higher value, 0% Pro5, 100% B10-LARGE cell signal
The campaign covered roughly 360,000 compounds. About 800 (0.22%) were called active. This excerpt belongs to a sample that is enriched for actives.
REPORTED METRIC: activation (%)
Express it in %; write the number only.

Some solved entries appear below for comparison.
{"COMPOUND": "COc1ccc(CC(NC(C)=O)C(=O)NC2CCN(C(=O)c3ccc(OC)c(OC)c3)CC2)cc1OC (stereo not given)", "RECORDED MEASUREMENT": -0.3}
{"COMPOUND": "C[C@H](CO)N1C[C@H](C)[C@H](CN(C)CC2CC2)Oc2ccc(NC(=O)CCN3CCOCC3)cc2C1=O", "RECORDED MEASUREMENT": 0.2}
{"COMPOUND": "O=S1(=O)CC(NCc2ccccc2)C(Nc2ccc(Cl)cc2)C1 (stereo not given)", "RECORDED MEASUREMENT": 0}
{"COMPOUND": "CCOc1ccc(CCNC(=O)CCc2nnc3ccc(N4CCCC4)nn23)cc1OCC", "RECORDED MEASUREMENT": 0.3}

Lab note: next compound to report on.
Q: State its activation: OC(CN=c1sc2ccccc2n1CC(O)COc1ccccc1)COc1ccccc1 (stereo not given)
Ans: 0.6
